- EXPERIMENTAL_TARGET: purified PfENR (Plasmodium falciparum, UniProt Q9BH77)
- Sequence (Q9BH77 22-432): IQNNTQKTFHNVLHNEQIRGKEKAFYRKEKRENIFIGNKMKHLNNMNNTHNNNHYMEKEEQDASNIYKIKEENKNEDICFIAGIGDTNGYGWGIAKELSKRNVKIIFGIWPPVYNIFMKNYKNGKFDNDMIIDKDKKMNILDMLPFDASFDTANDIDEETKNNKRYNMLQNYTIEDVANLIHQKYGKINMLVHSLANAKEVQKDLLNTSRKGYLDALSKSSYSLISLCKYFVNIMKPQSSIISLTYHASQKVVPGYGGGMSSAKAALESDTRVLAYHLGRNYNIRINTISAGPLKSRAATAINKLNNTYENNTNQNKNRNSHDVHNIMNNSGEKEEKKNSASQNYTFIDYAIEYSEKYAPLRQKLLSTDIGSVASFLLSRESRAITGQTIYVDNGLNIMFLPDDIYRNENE
- METHOD_NOTES: PfENR inhibition, standard enzyme assay
- Format: biochemical
- MEASUREMENT_PARAMETERS: read-out: Inhibition of PfENR (IC50 μM)
- Protocol: PfENR activity was determined using standard assay described earlier.
READOUT_LABEL: IC50 (µM)
Numbers only, in µM.

Each molecule below has a reported value. Please supply its IC50.
1. COc1ccc(CNC(=O)c2sc3ccccc3c2Br)cc1 [Compound 5]
2. C=CCN(Cc1ccc(F)cc1)C(=O)c1sc2ccccc2c1Br [Compound 10]
3. O=C(NCCc1ccccc1)c1sc2ccccc2c1Br [Compound 8]

32
52
55
